Just for reference, patent US20260297085A1 is where these values come from.

Could you please report measured pIC50 for the items listed next?
Target: JAK1 kinase activity on STAT3 in TF1 cells (Homo sapiens)
Sequence (P23458 whole entry): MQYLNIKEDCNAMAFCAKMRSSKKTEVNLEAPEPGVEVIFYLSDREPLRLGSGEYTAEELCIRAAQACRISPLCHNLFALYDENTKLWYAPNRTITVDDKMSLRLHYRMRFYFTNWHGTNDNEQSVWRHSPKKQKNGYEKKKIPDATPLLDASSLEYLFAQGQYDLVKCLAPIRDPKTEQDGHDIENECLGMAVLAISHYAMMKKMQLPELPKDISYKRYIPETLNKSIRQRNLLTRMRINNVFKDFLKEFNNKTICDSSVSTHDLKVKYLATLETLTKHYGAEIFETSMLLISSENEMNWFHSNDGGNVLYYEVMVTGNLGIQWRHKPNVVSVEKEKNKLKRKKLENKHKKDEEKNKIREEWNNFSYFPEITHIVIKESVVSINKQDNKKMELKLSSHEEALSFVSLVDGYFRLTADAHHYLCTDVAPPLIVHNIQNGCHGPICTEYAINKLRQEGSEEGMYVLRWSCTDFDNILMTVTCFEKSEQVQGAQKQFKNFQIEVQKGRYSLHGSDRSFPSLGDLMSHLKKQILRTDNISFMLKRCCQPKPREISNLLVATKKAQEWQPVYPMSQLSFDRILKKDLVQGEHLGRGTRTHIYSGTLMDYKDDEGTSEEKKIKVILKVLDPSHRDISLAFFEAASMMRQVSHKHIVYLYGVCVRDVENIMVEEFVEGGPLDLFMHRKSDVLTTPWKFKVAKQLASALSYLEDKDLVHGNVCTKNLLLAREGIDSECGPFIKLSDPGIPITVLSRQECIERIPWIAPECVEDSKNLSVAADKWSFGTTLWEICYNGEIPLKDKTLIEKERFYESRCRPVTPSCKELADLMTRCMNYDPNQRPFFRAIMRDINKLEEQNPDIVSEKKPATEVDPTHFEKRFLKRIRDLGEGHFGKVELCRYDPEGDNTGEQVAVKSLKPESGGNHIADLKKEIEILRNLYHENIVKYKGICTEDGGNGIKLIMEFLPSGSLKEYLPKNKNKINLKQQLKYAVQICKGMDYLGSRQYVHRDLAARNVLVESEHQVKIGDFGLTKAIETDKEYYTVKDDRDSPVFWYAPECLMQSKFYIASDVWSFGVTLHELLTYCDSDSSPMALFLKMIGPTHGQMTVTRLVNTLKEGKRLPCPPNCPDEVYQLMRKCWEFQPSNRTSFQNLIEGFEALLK
Test: pSTAT3 cell assay (MSD; TF1 cells, 30 ng/mL IL-6 stimulation)
Settings: 30 ng/mL IL-6, 15 minutes
pIC50: −log10 of the molar value. Structures can show the parent of a compound that is named as a salt.

[ask] Could you tell me which pIC50 is on file for COc1cncc(-c2cn3nccc3c(N3C[C@@H](C)[C@@](C#N)(C4CC4)C3=O)n2)c1 [Example 244, trifluoroacetate] ?
[reply] 5.00 to 5.30

[ask] Could you tell me which pIC50 is on file for [2H]C([2H])([2H])n1cc(-c2cn3ncc(F)c3c(N3C[C@@H](C)[C@@](C#N)(C4CC4)C3=O)n2)cn1 [Example 211] ?
[reply] 5.30 to 6.00

[ask] Could you tell me which pIC50 is on file for C[C@@H]1CN(c2ccnn3cc(-n4ccnc4)cc23)C(=O)[C@]1(C#N)C1CC1 [Example 336] ?
[reply] < 5.00

[ask] Could you tell me which pIC50 is on file for COc1cccc(-c2cn3nccc3c(N3C[C@@H](C)[C@@](C#N)(C4CC4)C3=O)n2)n1 [Example 193] ?
[reply] < 5.00

[ask] Could you tell me which pIC50 is on file for COc1cc(-c2cc3c(N4CC[C@@](C#N)(C5CC5)C4=O)ccnn3c2)ccn1 [Example 8] ?
[reply] 5.30 to 6.00

[ask] Could you tell me which pIC50 is on file for C[C@@H]1CN(c2nc(-c3cnn(C4CC5(COC5)C4)c3)cn3nccc23)C(=O)[C@]1(C#N)C1CC1 [Example 289] ?
[reply] > 7.00

[ask] Could you tell me which pIC50 is on file for C[C@@H]1CN(c2nc(-c3ccc(S(C)(=O)=O)nc3)cn3nccc23)C(=O)[C@]1(C#N)C1CC1 [Example 257, trifluoroacetate] ?
[reply] 5.30 to 6.00

[ask] Could you tell me which pIC50 is on file for C[C@@H]1CN(c2nn(-c3cnn(C)c3)c3cnccc23)C(=O)[C@]1(C#N)C1CC1 [Example 275] ?
[reply] 5.00 to 5.30

[ask] Could you tell me which pIC50 is on file for CCOCCn1cc(-c2cc3c(N4C[C@@H](C)[C@@](C#N)(C5CC5)C4=O)ccnn3c2)cn1 [Example 172] ?
[reply] 5.30 to 6.00

[ask] Could you tell me which pIC50 is on file for [2H]C([2H])([2H])n1cc(-c2cn3nccc3c(N3C[C@@H](C)[C@@](C#N)(C4CC4)C3=O)n2)cn1 [Example 201] ?
[reply] 6.00 to 7.00

[ask] Could you tell me which pIC50 is on file for C[C@@H]1CN(c2nc(-c3cnn(C4CC5(COC5)C4)c3)cn3ncc(F)c23)C(=O)[C@]1(C#N)C1CC1 [Example 298] ?
[reply] 6.00 to 7.00

[ask] Could you tell me which pIC50 is on file for C[C@@H]1CN(c2nc(-c3cnn([C@H]4C[C@](C)(C#N)C4)c3)cn3ncc(F)c23)C(=O)[C@]1(C#N)C1CC1 [Example 308] ?
[reply] 6.00 to 7.00

[ask] Could you tell me which pIC50 is on file for C[C@@H]1CN(c2ccnn3cc(-c4cn[nH]c4)cc23)C(=O)[C@]1(C#N)C1CC1 [Example 59, trifluoroacetate] ?
[reply] 5.30 to 6.00

[ask] Could you tell me which pIC50 is on file for C[C@@H]1CN(c2nc(-c3ccnc(F)c3)cn3nccc23)C(=O)[C@]1(C#N)C1CC1 [Example 237, trifluoroacetate] ?
[reply] 6.00 to 7.00
